- Tested on: HL-60(TB) leukemia
- assay notes: NCI tumour cell line growth inhibition, 48 h; in the data active = GI50 below about 0.43 µM; inactive = the rest
One label from this list, please: 1 (active), 0 (inactive)

Completed entries (count: 3):
                                   compound  target_or_test_system  cat
0  COc1cc2c3c(n(CCCN=[N+]=[N-])c(=O)c2cc1OC)-c1ccc(F)cc1C3=O     HL-60(TB) leukemia    0
1  COc1cc(-n2cc(-c3ccc(Cl)cc3)n(-c3ccccc3)c2=O)cc(OC)c1OC     HL-60(TB) leukemia    0
2  CCCN(CCC)c1ccc(/C=N/NC(=O)c2cccnc2)c(C)c1     HL-60(TB) leukemia    0

Q. Hello, I am checking results. What call was entered for `Clc1ccc(-c2cnc3c(-c4ccnc(N5CCNCC5)c4)cnn3c2)cc1` ?
A. 0

Q. Hello, I am checking results. What call was entered for `CC(=O)O[C@@H]1c2c(c3c(=O)c4cccc(O)c4c(=O)c=3c2=[N+]=[N-])[C@H](OC(C)=O)[C@@H](OC(C)=O)[C@]1(C)O` ?
A. 1

Q. Hello, I am checking results. What call was entered for `Cc1ncc(C(=O)Nc2ccc(CN3CCN(C)CC3)c(C(F)(F)F)c2)cc1C#Cc1cnc(N)c2ccc(C#N)cc12` ?
A. 1

---

- Test system: HCC-2998 colon
- assay notes: NCI tumour cell line growth inhibition, 48 h
test readout: TGI (µM)
Numbers only; they are read as µM.

In [3]: df
Out[3]:
                                   compound  recorded_measurement
0  COc1cc(C2c3cc4c(cc3OC(NNC(N)=S)C2C)OCO4)cc(OC)c1OC (stereo unspecified)                  18.7
1                C=C(CN(C)C)C(=O)c1ccccc1OC                  51.1

Q. Give measured TGI for `O=C1N[C@H]2C(=O)c3c(Br)sc(Br)c3[C@H]2O1` (HCC-2998 colon).
A. 24.2

Q. Give measured TGI for `Cc1nnn(C)c1-c1cnc2c3ccc(C(C)(C)O)cc3n([C@H](c3ccccc3)C3CCOCC3)c2c1` (HCC-2998 colon).
A. 3.98

Q. Give measured TGI for `O=C1Nc2cccc(Cl)c2/C1=C\c1cccnc1` (HCC-2998 colon).
A. 7.86

---

- Test system: NCI-H522 lung
- assay notes: NCI tumour cell line growth inhibition, 48 h
Each entry below lists one item and its recorded TGI value.

These solved cases illustrate the format of a correct answer.
>>> print(df.to_string())
                                   molecule  test_readout  recorded_measurement
0  O=C1C(Cl)C(c2ccccc2Cl)N1n1cnc2ccccc2c1=O (stereo unspecified)           TGI               85.2 µM
1   CC(C)CNC1=NCC(C)S1 (stereo unspecified)           TGI              > 100 µM

Q. Give the measured TGI for `Oc1nc(N2CCOCC2)sc1/C=C1\C=Nc2ccccc21`
A. > 100 µM

Q. Give the measured TGI for `Cc1cccc(N=Nc2c(C)nn(C(=O)CC(=O)Nc3ccc(Cl)cc3)c2C)c1`
A. > 100 µM

Q. Give the measured TGI for `Cc1cc(-c2nc3sc(C)cn3c2/C=N/N=C(N)N)c(C)s1`
A. > 100 µM

Q. Give the measured TGI for CCCC(=O)OCC1OC(n2cc(F)c(=O)[nH]c2=O)C(F)C1O (stereo unspecified)
A. > 100 µM
